Each recorded value in this set is attributed to patent US20250084056A1.

# ASSAYED_SYSTEM: GSPT1 (Homo sapiens, UniProt P15170+Q96SW2)
# Sequence (P15170 whole entry): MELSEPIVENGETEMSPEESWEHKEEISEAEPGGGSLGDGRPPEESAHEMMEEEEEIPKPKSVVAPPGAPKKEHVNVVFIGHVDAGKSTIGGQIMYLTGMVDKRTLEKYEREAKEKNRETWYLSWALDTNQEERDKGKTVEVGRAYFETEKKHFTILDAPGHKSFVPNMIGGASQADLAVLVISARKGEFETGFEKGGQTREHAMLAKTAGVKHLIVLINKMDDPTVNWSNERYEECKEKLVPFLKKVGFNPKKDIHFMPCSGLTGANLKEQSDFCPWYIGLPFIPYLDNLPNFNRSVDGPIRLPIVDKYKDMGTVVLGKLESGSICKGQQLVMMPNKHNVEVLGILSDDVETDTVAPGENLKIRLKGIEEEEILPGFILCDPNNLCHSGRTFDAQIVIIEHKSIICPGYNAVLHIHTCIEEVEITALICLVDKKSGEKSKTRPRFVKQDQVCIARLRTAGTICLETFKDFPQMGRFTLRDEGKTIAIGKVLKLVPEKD
# Sequence (Q96SW2 whole entry): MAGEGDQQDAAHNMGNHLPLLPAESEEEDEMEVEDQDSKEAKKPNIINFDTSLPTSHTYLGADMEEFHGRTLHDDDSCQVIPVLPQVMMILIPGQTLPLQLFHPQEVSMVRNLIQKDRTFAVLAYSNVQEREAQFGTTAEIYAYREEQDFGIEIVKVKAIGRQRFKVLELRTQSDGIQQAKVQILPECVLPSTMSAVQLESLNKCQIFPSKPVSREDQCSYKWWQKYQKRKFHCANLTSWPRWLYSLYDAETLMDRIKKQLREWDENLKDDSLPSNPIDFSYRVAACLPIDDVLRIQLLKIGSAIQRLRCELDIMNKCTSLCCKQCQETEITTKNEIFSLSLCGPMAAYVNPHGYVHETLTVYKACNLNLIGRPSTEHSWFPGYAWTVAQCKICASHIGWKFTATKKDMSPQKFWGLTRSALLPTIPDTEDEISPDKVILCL
# Sequence (Q16531 whole entry partner): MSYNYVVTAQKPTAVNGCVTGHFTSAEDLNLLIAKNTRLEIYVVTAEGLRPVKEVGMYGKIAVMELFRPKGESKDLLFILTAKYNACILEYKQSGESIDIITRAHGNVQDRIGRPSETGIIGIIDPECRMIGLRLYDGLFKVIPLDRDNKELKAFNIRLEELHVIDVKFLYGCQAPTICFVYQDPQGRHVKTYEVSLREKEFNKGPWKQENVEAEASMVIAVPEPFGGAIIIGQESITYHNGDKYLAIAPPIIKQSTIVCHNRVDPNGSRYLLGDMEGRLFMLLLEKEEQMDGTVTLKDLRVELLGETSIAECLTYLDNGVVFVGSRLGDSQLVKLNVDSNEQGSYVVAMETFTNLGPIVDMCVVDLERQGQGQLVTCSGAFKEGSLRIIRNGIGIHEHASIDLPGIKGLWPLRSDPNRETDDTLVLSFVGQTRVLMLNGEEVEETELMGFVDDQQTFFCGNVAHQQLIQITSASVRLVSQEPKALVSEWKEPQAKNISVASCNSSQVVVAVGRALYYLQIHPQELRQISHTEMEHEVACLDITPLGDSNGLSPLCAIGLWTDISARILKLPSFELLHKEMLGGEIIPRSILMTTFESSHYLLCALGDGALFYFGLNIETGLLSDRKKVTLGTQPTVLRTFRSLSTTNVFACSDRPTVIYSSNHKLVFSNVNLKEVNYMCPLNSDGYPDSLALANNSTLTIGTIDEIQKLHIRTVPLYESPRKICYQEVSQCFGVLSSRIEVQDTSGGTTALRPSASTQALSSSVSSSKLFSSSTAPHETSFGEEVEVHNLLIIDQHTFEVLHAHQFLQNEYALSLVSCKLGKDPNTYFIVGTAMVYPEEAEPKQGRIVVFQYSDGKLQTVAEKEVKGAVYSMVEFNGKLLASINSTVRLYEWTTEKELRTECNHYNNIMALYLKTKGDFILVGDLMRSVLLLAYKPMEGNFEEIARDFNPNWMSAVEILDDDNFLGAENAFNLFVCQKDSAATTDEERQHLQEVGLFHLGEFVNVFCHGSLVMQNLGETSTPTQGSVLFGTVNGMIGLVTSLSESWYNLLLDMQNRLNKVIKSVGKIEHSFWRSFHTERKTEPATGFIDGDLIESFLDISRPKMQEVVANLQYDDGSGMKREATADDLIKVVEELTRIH
# PROCEDURE_TEXT: GSPT1 Cellular Degradation Assay (DF15-GSPT1-ePL)
# Format: cell-based
# Set-up: expressed in transfected cells
# RUN_CONDITIONS: DF15-GSPT1-ePL cells, 20 hours
# Method: DF15-GSPT1-ePL was used for intracellular GSPT1 protein degradation detection in form of chemiluminescent signal, which was built on a human DF15 cell line (CVCL_Y429) with conditional co-expression of chimeric GSPT1 (target) and ePL/donor (enhanced ProLabel® by DiscoverX for enzyme fragment complementation with donor-acceptor pairing). […] Plate signal reading for luminescence on an EnVision plate reader (PerkinElmer) was conducted after 60 minutes of former step at room temperature. […]
EXPERIMENTAL_READOUT: Dmax (%)

• COc1c(COC(=O)Nc2ccc(Oc3ccccc3C)cc2)ccc2c1C(=O)N(C1CCC(=O)NC1=O)C2 (centres unmarked) [Example 101] = 18

a: COc1c(COC(=O)Nc2ccc(Oc3cc(F)c(F)c(F)c3)cc2)ccc2c1C(=O)N(C1CCC(=O)NC1=O)C2 (centres unmarked) [Example 77]
b: COc1c(COC(=O)Nc2ccc(Oc3ccc(F)c(F)c3)cc2)ccc2c1C(=O)N([C@H]1CCC(=O)NC1=O)C2 (single isomer, unassigned) [Example 35]
c: COc1c(COC(=O)Nc2ccc(C3(c4ccccc4)CC3)cc2)ccc2c1C(=O)N(C1CCC(=O)NC1=O)C2 (centres unmarked) [Example 7]
d: COc1c(COC(=O)Nc2ccc(Oc3cc(F)cc(F)c3)cc2F)ccc2c1C(=O)N(C1CCC(=O)NC1=O)C2 (centres unmarked) [Example 24]
Input: Could you please sort these 4 entries by Dmax from high to low? Please respond with the labels ordered as the question requires.
Output: b, a, c, d
(b: 46%, a: 32%, c: 21%, d: 10%)
